- test-name: Hemolytic activity, minimal hemolytic concentration (MHC);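 further: MCC here is the minimal hemolytic concentration (MHC)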
- Assay type: cell-based, sheep
- particulars: sheep, red blood cells
- Method: Hemolytic activity of the squalamine mimics according to the present invention were also studied by incubating sheep red blood cells for 24 hours at 37° C. in saline (final concentration of 0.5%) with or without respective concentrations of the squalamine mimics. The minimal hemolytic concentration (MHC) was determined as the lowest concentration of a mimic that raised visible hemolysis.
Give MCC at 24 h for every item shown.

1. C[C@H](CCC(=O)NCCCNCCCCNCCCN)[C@H]1CC[C@H]2[C@@H]3CC[C@@H]4C[C@H](OS(=O)(=O)O)CC[C@]4(C)[C@H]3C[C@H](OS(=O)(=O)O)[C@]12C [SM-8] : > 100 µg/mL
2. C[C@H](CCC(=O)NCCCNCCCCNCCCN)[C@H]1CC[C@H]2[C@@H]3CC[C@@H]4C[C@H](OS(=O)(=O)O)CC[C@]4(C)[C@H]3CC[C@]12C [SM-22] : > 100 µg/mL

Query compound follows.
Please report the recorded MCC at 24 h for C[C@H](C(=O)NCCNCCNCCN)[C@H]1CC[C@H]2[C@@H]3CC=C4C[C@@H](O)CC[C@]4(C)[C@H]3CC[C@]12C [SM-5] . > 100 µg/mL

###

- test-name: Hemolytic activity, minimal hemolytic concentration (MHC);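 further: MCC here is the minimal hemolytic concentration (MHC)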
- Format: cell-based, sheep
- particulars: sheep, red blood cells
metric-name: MCC at 24 h

Completed entries (count: 2):
1) C[C@H](CCC(=O)NCCNCCNCCN)[C@H]1CC[C@H]2[C@@H]3C[C@H](O)[C@@H]4C[C@H](O)CC[C@]4(C)[C@H]3CC[C@]12C [SM-32] : > 100 µg/mL
2) C[C@H](CCC(=O)NCCCNCCCCNCCCN)[C@H]1CC[C@H]2[C@@H]3C[C@H](O)[C@@H]4C[C@H](O)CC[C@]4(C)[C@H]3CC[C@]12C [SM-28] : > 100 µg/mL

// moving on: another record for MCC at 24 h
Item C[C@H](CCC(=O)NCCNCCNCCN)[C@H]1CC[C@H]2[C@@H]3[C@H](O)C[C@@H]4C[C@H](O)CC[C@]4(C)[C@H]3C[C@H](O)[C@]12C [SM-17] has what recorded MCC at 24 h? > 100 µg/mL

###

- Tested on: S. aureus (29213)
- test-name: MIC, micro-broth dilution
- Assay type: cell-based
- particulars: Staphylococcus aureus, 24 h, read-out: ANTIMICROBIAL ACTIVITY (MIC)
Exercise: state measured MIC for each of the compounds provided.
Give bare numbers, in µg/mL.

1) C[C@H](CCC(=O)NCCCCN)[C@H]1CC[C@H]2[C@@H]3CC[C@@H]4C[C@H](O)CC[C@]4(C)[C@H]3C[C@H](O)[C@]12C : 25

Provide each entry's MIC from the list below.
1. C[C@H](CCC(=O)NCCCNCCCCNCCCN)[C@H]1CC[C@H]2[C@@H]3[C@H](O)C[C@@H]4C[C@H](O)CC[C@]4(C)[C@H]3CC[C@]12C
2. C[C@H](CCCNCCCCN)[C@H]1CC[C@H]2[C@@H]3CC[C@@H]4C[C@H](O)CC[C@]4(C)[C@H]3C[C@H](O)[C@]12C

1.56
1.56
